# testProtocol: Survival rate of PC12 cells
# Type: cell-based
# setupConditions: rat
Residues, ends and D or L forms follow the SMILES beside them. *: point of attachment. X1 = O=C1c2cccc3c(N4CCCCC4)ccc(c23)C(=O)C1CC(=O)*
metric: viability

Task: Give me measured viability, please, for this compound: C[C@H](NC(=O)[C@H](CCC(=O)O)NC(=O)CNC(=O)[C@H](CC(=O)O)NC(=O)[C@H](Cc1ccccc1)NC(=O)CC1C(=O)c2cccc3c(N4CCCCC4)ccc(c23)C1=O)C(=O)O (stereo partly shown) (X1-FDGEA-OH)
Output: > 50%

====

# testProtocol: Fluorescence intensity and emission wavelength at different pH values
# Format: physicochemical
# setupConditions: pH 5
Non-standard residues stand in square brackets, D forms with d. Residues, ends and D or L forms follow the SMILES beside them. ξ: configuration not given here. *: point of attachment. X1 = O=C1c2cccc3c(N4CCCCC4)ccc(c23)C(=O)C1CC(=O)*; X2 = O=C1c2cccc3c(N4CCCCC4)ccc(c23)C(=O)N1CC(=O)*; ξE = NC(CCC(=O)O)C(=O)O
metric: emission peak

Task: Indicate the recorded emission peak value for this molecule: C[C@H](NC(=O)[C@H](CCC(=O)O)NC(=O)CNC(=O)[C@H](CC(=O)O)NC(=O)[C@H](Cc1ccccc1)NC(=O)CC1C(=O)c2cccc3c(N4CCCCC4)ccc(c23)C1=O)C(=O)O (stereo partly drawn) (X1-FDGEA-OH)
Output: about 550 nm

Task: Please list emission peak recorded for the molecule O=C(O)C[C@H](NC(=O)[C@H](CC(=O)O)NC(=O)[C@H](Cc1ccccc1)NC(=O)CN1C(=O)c2cccc3c(N4CCCCC4)ccc(c23)C1=O)C(=O)O [III-23]
Output: about 525 nm

Task: Hello, please tell me recorded emission peak for this one: O=C(O)CCC(NC(=O)[C@H](Cc1ccccc1)NC(=O)CN1C(=O)c2cccc3c(N4CCCCC4)ccc(c23)C1=O)C(=O)O (stereo partly drawn)
Output: about 550 nm

Task: Answer with the recorded emission peak of O=C(O)CCC(NC(=O)C(CCC(=O)O)NC(=O)C(CCC(=O)O)NC(=O)[C@H](Cc1ccccc1)NC(=O)CN1C(=O)c2cccc3c(N4CCCCC4)ccc(c23)C1=O)C(=O)O (stereo partly drawn) [III-27] (X2-F[ξE][ξE][ξE]-OH) only.
Output: about 525 nm

====

# testProtocol: Survival rate of PC-3 cells in the fluorescence material
# Format: cell-based
# setupConditions: human, two days, PC-3 cell
Residues, ends and D or L forms follow the SMILES beside them. *: point of attachment. X1 = O=C1c2cccc3c(N4CCCCC4)ccc(c23)C(=O)C1CC(=O)*
metric: viability at 48 h, 500 µM (%)
Answer with a number only, understood to be in %.

Task: Report viability at 48 h, 500 µM for C[C@H](NC(=O)[C@H](CCC(=O)O)NC(=O)CNC(=O)[C@H](CC(=O)O)NC(=O)[C@H](Cc1ccccc1)NC(=O)CC1C(=O)c2cccc3c(N4CCCCC4)ccc(c23)C1=O)C(=O)O (stereo partly shown) (X1-FDGEA-OH)
Output: 80

====

# testProtocol: Survival rate of 3T3L1 cells
# Assay type: cell-based
# setupConditions: mouse
Residues, ends and D or L forms follow the SMILES beside them. *: point of attachment. X1 = O=C1c2cccc3c(N4CCCCC4)ccc(c23)C(=O)C1CC(=O)*
metric: viability

Task: Fill in viability for record C[C@H](NC(=O)[C@H](CCC(=O)O)NC(=O)CNC(=O)[C@H](CC(=O)O)NC(=O)[C@H](Cc1ccccc1)NC(=O)CC1C(=O)c2cccc3c(N4CCCCC4)ccc(c23)C1=O)C(=O)O (stereo partly shown) (X1-FDGEA-OH)
Output: > 50%

All values here come from patent US10222381B2.
